// Activity lookup, one value per entry
Species: Gallus gallus
Assay: Vasodepressor activity in chicken
Format: functional
quantityName: Activity (U/mg)

smilesNotation | quantityName | valueReported
NCCCC[C@H](NC(=O)[C@@H]1CCCN1C(=O)[C@@H]1CSSC[C@H](N)C(=O)N[C@@H](Cc2ccc(O)cc2)C(=O)N[C@@H](Cc2ccccc2)C(=O)N[C@@H](CCC(N)=O)C(=O)N[C@@H](CC(N)=O)C(=O)N1)C(=O)NCC(N)=O | Activity | 40
N=C(N)NCCC[C@H](NC(=O)[C@@H]1CCCN1C(=O)[C@@H]1CSSC[C@H](N)C(=O)N[C@@H](Cc2ccc(O)cc2)C(=O)N[C@@H](Cc2ccccc2)C(=O)N[C@@H](CCC(N)=O)C(=O)N[C@@H](CC(N)=O)C(=O)N1)C(=O)NCC(N)=O | Activity | 57

----------
Tested on: Rattus norvegicus
Test: Antidiuretic activity in iv dosed water loaded rat
Assay type: functional, Urine
Starred links: 1 amine or outer side, 2 acyl side, 3 side chain; linkers in the order of their positions; H or OH if unused. Positions of bridges follow the written chain, without caps; N, C: chain ends. Non-standard residues stand in square brackets, D forms with d. Residues, ends and D or L forms follow the SMILES beside them. X1 = O=C([C@H](CC1=CCC=CC1)N[*:1])[*:2]

compound | system | Activity [U/mg]
NCCCC[C@H](NC(=O)[C@@H]1CCCN1C(=O)[C@@H]1CSSC[C@H](N)C(=O)N[C@@H](Cc2ccc(O)cc2)C(=O)N[C@@H](CC2=CCC=CC2)C(=O)N[C@@H](CCC(N)=O)C(=O)N[C@@H](CC(N)=O)C(=O)N1)C(=O)NCC(N)=O (H-CY[X1]QNCPKG-NH2; disulfide 1-6) | Rattus norvegicus | 125

----------
Species: Gallus gallus
Assay: Vasodepressor activity in chicken
Assay type: functional
Positions of bridges follow the written chain, without caps; N, C: chain ends. Non-standard residues stand in square brackets, D forms with d. Residues, ends and D or L forms follow the SMILES beside them. 2Thi = N[C@@H](Cc1cccs1)C(=O)O
// Activity lookup, one value per entry

molecule | sign | Activity [U/mg]
CC[C@H](C)[C@@H]1NC(=O)[C@H](Cc2ccc(O)cc2)NC(=O)[C@@H](N)CSSC[C@@H](C(=O)N2CCC[C@H]2C(=O)N[C@@H](CCCCN)C(=O)NCC(N)=O)NC(=O)[C@H](CC(N)=O)NC(=O)[C@H](CCC(N)=O)NC1=O (H-CYIQNCPKG-NH2; disulfide 1-6) | = | 190
NCCCC[C@H](NC(=O)[C@@H]1CCCN1C(=O)[C@@H]1CSSC[C@H](N)C(=O)N[C@@H](Cc2ccc(O)cc2)C(=O)N[C@@H](CO)C(=O)N[C@@H](CCC(N)=O)C(=O)N[C@@H](CC(N)=O)C(=O)N1)C(=O)NCC(N)=O (H-CYSQNCPKG-NH2; disulfide 1-6) | < | 0.01
CC[C@H](C)[C@@H]1NC(=O)[C@H](Cc2ccc(O)cc2)NC(=O)[C@@H](N)CSSC[C@@H](C(=O)N2CCC[C@H]2C(=O)N[C@@H](CCCNC(=N)N)C(=O)NCC(N)=O)NC(=O)[C@H](CC(N)=O)NC(=O)[C@H](CCC(N)=O)NC1=O [ARGIPRESTOCIN] (H-CYIQNCPRG-NH2; disulfide 1-6) | = | 286
NCCCC[C@H](NC(=O)[C@@H]1CCCN1C(=O)[C@@H]1CSSC[C@H](N)C(=O)N[C@@H](Cc2ccc(O)cc2)C(=O)N[C@@H](Cc2ccc(O)cc2)C(=O)N[C@@H](CCC(N)=O)C(=O)N[C@@H](CC(N)=O)C(=O)N1)C(=O)NCC(N)=O (H-CYYQNCPKG-NH2; disulfide 1-6) | = | 0.08
NCCCC[C@H](NC(=O)[C@@H]1CCCN1C(=O)[C@@H]1CSSC[C@H](N)C(=O)N[C@@H](Cc2ccc(O)cc2)C(=O)N[C@@H](Cc2cccs2)C(=O)N[C@@H](CCC(N)=O)C(=O)N[C@@H](CC(N)=O)C(=O)N1)C(=O)NCC(N)=O (H-CY[2Thi]QNCPKG-NH2; disulfide 1-6) | = | 87

Hello, the source for this data is ChEMBL document CHEMBL3244368, in case you need it.
